Recorded IC50 for the following compounds
TARGET SYSTEM: Recombinant ROCK1 (amino acids 1-477) (Homo sapiens)
Construct: Recombinant ROCK1 (amino acids 1-477); by word order, ROCK1 from Carna Biosciences
Sequence (Q13464 1-477): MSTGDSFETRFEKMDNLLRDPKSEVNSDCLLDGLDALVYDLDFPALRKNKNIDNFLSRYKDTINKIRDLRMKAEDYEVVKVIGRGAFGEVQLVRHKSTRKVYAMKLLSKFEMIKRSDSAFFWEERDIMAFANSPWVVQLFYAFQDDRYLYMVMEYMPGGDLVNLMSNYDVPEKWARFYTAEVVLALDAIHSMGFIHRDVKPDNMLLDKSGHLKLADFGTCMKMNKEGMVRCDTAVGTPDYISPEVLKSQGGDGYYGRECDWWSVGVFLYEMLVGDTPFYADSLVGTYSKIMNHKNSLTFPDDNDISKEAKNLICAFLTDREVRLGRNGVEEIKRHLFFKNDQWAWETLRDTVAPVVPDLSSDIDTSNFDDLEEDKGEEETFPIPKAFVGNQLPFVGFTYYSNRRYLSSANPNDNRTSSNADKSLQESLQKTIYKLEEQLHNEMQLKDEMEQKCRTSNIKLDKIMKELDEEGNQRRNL
TEST PROTOCOL: ROCK inhibition assay, LANCE Ultra TR-FRET kinase assay (ROCK1)
CONDITION DETAILS: 1 μM ATP, 50 nM ULight-CREBtide substrate

| COMPOUND | IC50 |
| --- | --- |
| O=C(NCCc1ccncc1)c1cccc(Cn2cnc3cc(-c4cn[nH]c4C(F)(F)F)ccc3c2=O)c1 [Compound 370] | < 10 nM |
| COc1cccc(Cn2ccc3cc(-c4c[nH]nc4C(F)F)ccc3c2=O)c1 [Compound 13] | 11 to 100 nM |
| Cc1nocc1-c1ccc2c(=O)n(Cc3cccc(C(=O)NC4CCOCC4)c3)ccc2c1 [Compound 77] | 11 to 100 nM |
| O=C(NCCN1CCOCC1)c1cccc(Cn2ccc3cc(N4CCOCC4)ccc3c2=O)c1 [Compound 216] | 101 to 500 nM |
| NCC(c1cccc(Cl)c1)n1cnc2cc(-c3ccnc(N)c3)ccc2c1=O (centres unmarked) [Compound 493] | 11 to 100 nM |

Identify measured IC50 associated with Nc1cc(-c2ccc3c(=O)n(Cc4cc(F)cc(C(=O)Nc5ccon5)c4)ccc3c2)ccn1 [Compound 205]
> 501 nM

Look up IC50 of CN1CCC(NC(=O)c2cc(F)cc(Cn3ccc4cc(-c5c[nH]nc5C(F)(F)F)ncc4c3=O)c2)CC1 [Compound 259] and report it.
11 to 100 nM

Let me know recorded IC50 for Cc1nocc1-c1ccc2c(=O)n(Cc3cccc(C(=O)Nc4ccc5c(c4)CNCC5)c3)ccc2c1 [Compound 100] , thanks.
< 10 nM

====

Listing: pIC50 of selected compounds
TARGET SYSTEM: Recombinant ROCK2 (amino acids 5-554) (Homo sapiens)
Construct: ROCK2 (amino acids 5-554); by word order, ROCK2 from SignalChem
Sequence (O75116 5-554): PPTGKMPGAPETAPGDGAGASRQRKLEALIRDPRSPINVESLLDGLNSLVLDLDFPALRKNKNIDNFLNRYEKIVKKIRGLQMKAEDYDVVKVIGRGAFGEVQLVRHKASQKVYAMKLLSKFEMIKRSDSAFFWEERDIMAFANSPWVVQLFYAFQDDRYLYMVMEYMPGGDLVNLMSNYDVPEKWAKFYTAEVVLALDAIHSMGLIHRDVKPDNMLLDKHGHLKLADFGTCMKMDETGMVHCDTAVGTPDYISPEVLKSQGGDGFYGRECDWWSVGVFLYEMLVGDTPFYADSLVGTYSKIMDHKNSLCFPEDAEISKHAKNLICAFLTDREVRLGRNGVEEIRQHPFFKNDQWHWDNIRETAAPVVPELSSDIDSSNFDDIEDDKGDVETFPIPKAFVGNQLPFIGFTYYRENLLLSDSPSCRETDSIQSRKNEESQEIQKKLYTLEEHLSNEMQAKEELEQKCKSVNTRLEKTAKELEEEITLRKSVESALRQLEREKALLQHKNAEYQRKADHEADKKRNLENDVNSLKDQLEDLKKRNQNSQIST
TEST PROTOCOL: ROCK inhibition assay, LANCE Ultra TR-FRET kinase assay (ROCK2)
CONDITION DETAILS: 4 μM ATP, 50 nM ULight-CREBtide substrate
pIC50: −log10 of the molar value.

| COMPOUND | pIC50 |
| --- | --- |
| CNC(=O)c1cccc(Cn2ccc3cc(C4=CCOC4)ccc3c2=O)c1 | < 6.30 |
| COc1cccc(Cn2ccc3cc(-c4ccncc4)ccc3c2=O)c1 | > 8.00 |
| COc1cccc(C(CN)n2cnc3cc(-c4cn[nH]c4C)ccc3c2=O)c1 (centres unmarked) | > 8.00 |
| COc1cccc([C@@H](CO)N2CNc3cc(-c4ccncc4)ccc3C2=O)c1 | 6.30 to 7.00 |

Give the value of pIC50 reported for the following: CNC(=O)c1cccc(Cn2cc(CC(C)O)c3cc(-c4cn[nH]c4C(F)(F)F)ccc3c2=O)c1 (centres unmarked)
> 8.00

Given the compound `O=C1c2ccc(-c3cn[nH]c3C(F)(F)F)cc2NCN1[C@H](CO)c1cccc(Cl)c1` , write its reported pIC50.
6.30 to 7.00

In one line, give reported pIC50 of the entry O=C(NCCN1CCOCC1)c1cccc(Cn2ccc3cc(N4CCOCC4)ccc3c2=O)c1 [Compound 230] .
7.00 to 8.00

For the compound `C[C@H](c1cccc(C(=O)NC2COC2)c1)n1cnc2cc(-c3cn[nH]c3Br)ccc2c1=O` , give its reported pIC50.
> 8.00
